Source listed as the supplement of paper PMC3334620.

tested-system: Cst6 (UniProt P40535)
Sequence (P40535 whole entry): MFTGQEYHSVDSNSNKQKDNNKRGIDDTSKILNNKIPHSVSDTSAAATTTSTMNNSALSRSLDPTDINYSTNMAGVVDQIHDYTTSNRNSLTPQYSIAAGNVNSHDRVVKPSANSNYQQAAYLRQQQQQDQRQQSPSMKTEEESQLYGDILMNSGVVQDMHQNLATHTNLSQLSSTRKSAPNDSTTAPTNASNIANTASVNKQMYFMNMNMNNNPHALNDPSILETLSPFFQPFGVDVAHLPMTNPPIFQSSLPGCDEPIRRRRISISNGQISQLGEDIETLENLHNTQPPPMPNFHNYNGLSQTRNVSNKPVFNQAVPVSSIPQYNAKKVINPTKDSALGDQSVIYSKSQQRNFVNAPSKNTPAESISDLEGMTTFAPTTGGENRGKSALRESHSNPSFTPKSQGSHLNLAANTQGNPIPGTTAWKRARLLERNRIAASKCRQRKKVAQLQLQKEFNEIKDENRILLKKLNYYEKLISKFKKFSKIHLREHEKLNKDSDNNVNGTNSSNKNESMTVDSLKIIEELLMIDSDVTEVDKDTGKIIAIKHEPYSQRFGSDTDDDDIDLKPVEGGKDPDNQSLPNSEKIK
test-details: PBM E-score (8-mer binding enrichment) (E-score (-0.5 to 0.5)); higher = stronger / more preferred TF binding
study-conditions: protein concentration: 200 nM; construct: GST-DNA-binding domain
Over roughly 33,000 sequences, “E-score (-0.5 to 0.5)” has its median near -0.016; the highest 2% begin near 0.31. Only a selection was taken, and the highest values are over-represented in it overall.
Recorded PBM E-score determines the label; the label ranges are lower (below 0.009), middle (0.009 to below 0.2), upper (0.2 or more)

ATCAATGA = upper
AGTGACTC = middle
CGTGACCA = lower
TGACATCA = upper
CGAACGAG = lower

// return the class label for `CCTCACTC`
middle

Which class is correct for the following sequence? `GATTACGA`
upper

Hello team, could you let me know which band the following sequence falls into: `GTTTGGTA`
upper

Just checking, what class would you give `CGTGACGA` here?
upper

Which bin, given its PBM E-score, does `AGTGACCC` occupy?
lower

###

tested-system: Cst6 (UniProt P40535)
test-details: PBM E-score (8-mer binding enrichment) (E-score (-0.5 to 0.5)); higher = stronger / more preferred TF binding
study-conditions: protein concentration: 200 nM; construct: GST-DNA-binding domain
Whole data set: some 33,000 sequences, median “E-score (-0.5 to 0.5)” near -0.016, cut for the highest 2% near 0.31. This excerpt belongs to a sample that is enriched for the highest values.
readout-kind: PBM E-score
Lab note: write the figure by itself, no unit.

Worked cases, answers included:
GAATGTGC = 0.07
AATTATCT = 0.161
CATACATG = 0.0541
CGTCATTC = 0.467
AATTATCG = 0.316
TGCCTTAA = -0.0513
CAGCCTTA = -0.254
AATTATCC = 0.188

Looking for the measured PBM E-score of `CATTATCA` , can you help?
0.137

Bench note: what PBM E-score did `ATGTTGGC` show?
-0.0418

Quick one: PBM E-score for `AGTCATTA` ?
0.0194

###

tested-system: Cst6 (UniProt P40535)
test-details: PBM E-score (8-mer binding enrichment) (E-score (-0.5 to 0.5)); higher = stronger / more preferred TF binding
study-conditions: protein concentration: 200 nM; construct: GST-DNA-binding domain
Whole data set: some 33,000 sequences, median “E-score (-0.5 to 0.5)” near -0.016, cut for the highest 2% near 0.31. The full list was thinned out, with the highest values kept by preference.
readout-kind: PBM E-score
The reply should be a number, written without any unit.

ATCATTTC = 0.246

Which value of PBM E-score has been reported for `TACGAAAA` in the records?
0.233

Bench note: what PBM E-score did `GATACGCA` show?
0.0359

Consider the sequence `CCGATCTA` and give its measured PBM E-score.
-0.27

Can you look up the measured PBM E-score of `CATCATGA` for me?
0.363

Which PBM E-score is listed for `CGATTGAG` ?
-0.0697

###

tested-system: Cst6 (UniProt P40535)
test-details: PBM E-score (8-mer binding enrichment) (E-score (-0.5 to 0.5)); higher = stronger / more preferred TF binding
study-conditions: protein concentration: 200 nM; construct: GST-DNA-binding domain
Over roughly 33,000 sequences, “E-score (-0.5 to 0.5)” has its median near -0.016; the highest 2% begin near 0.31. The entries come from a sample that favours the highest values as a whole.
We use 0.1 as the dividing line for PBM E-score: on or above the line is y, below is n.

Answered examples (2):
AAAAGAGG = n
ATGACAAG = y

Threshold query (PBM E-score >= 0.1) on `CTCAGACC`
n

###

tested-system: Cst6 (UniProt P40535)
test-details: PBM E-score (8-mer binding enrichment) (E-score (-0.5 to 0.5)); higher = stronger / more preferred TF binding
study-conditions: protein concentration: 200 nM; construct: GST-DNA-binding domain
The full ranking holds about 33,000 sequences; the median of “E-score (-0.5 to 0.5)” is about -0.016, and the highest 2% start at about 0.31. This excerpt belongs to a sample that is enriched for the highest values.
PBM E-score reference
Answer with a number only.

Would you please look over these solved cases?
ACACGGAC = -0.00107
AGATGATA = 0.211
CTCTCGCC = -0.249
AACAGGCA = -0.0324
ATTTGTTA = 0.22

What measured PBM E-score goes with `AGCGCGTA` ?
0.177

Which PBM E-score is reported for this sequence? `ATATGATC`
0.234

Param item = `CACAGTGC` ; retrieve measured PBM E-score.
-0.024

Query: PBM E-score; subject: `CTTTGTTC`
0.126

###

tested-system: Cst6 (UniProt P40535)
test-details: PBM E-score (8-mer binding enrichment) (E-score (-0.5 to 0.5)); higher = stronger / more preferred TF binding
study-conditions: protein concentration: 200 nM; construct: GST-DNA-binding domain
Whole data set: some 33,000 sequences, median “E-score (-0.5 to 0.5)” near -0.016, cut for the highest 2% near 0.31. The full list was thinned out, with the highest values kept by preference.
// PBM E-score lookup, one value per entry
Reply with the value as a number alone.

The following sequences have reported results that may help.
ATCATCTA = 0.151
CCGTAAGG = -0.113
ATCGGAGA = -0.197

Name the reported PBM E-score value associated with the sequence `CATGATAA`
0.155

What value of PBM E-score has been recorded for this entry: `TTCATCAA`
0.151

Which PBM E-score reading was recorded for the sequence `ACTGATAT` ?
0.109

I'd like to know its PBM E-score. The sequence in question is `CTCATCGA`
-0.0055

Return reported PBM E-score; argument: `AATGATAC`
0.316

Which PBM E-score is reported for this sequence? `CGTAAACA`
0.262

Need PBM E-score of `GATGATAC` , thanks.
0.127

###

tested-system: Cst6 (UniProt P40535)
test-details: PBM E-score (8-mer binding enrichment) (E-score (-0.5 to 0.5)); higher = stronger / more preferred TF binding
study-conditions: protein concentration: 200 nM; construct: GST-DNA-binding domain
The full ranking holds about 33,000 sequences; the median of “E-score (-0.5 to 0.5)” is about -0.016, and the highest 2% start at about 0.31. This excerpt belongs to a sample that is enriched for the highest values.
Where PBM E-score equals or exceeds 0.2, the correct label is criterion met; where it does not, the label is criterion not met.

ACTGTGTA = criterion not met

Quick check, PBM E-score >= 0.2? `GGCGGGCA`
criterion not met

Assess whether reported PBM E-score for `GTAATGAA` sits at 0.2 or higher.
criterion met

Hi team, for `GAGCCTCC` , is the recorded PBM E-score at or above 0.2?
criterion not met

Threshold query (PBM E-score >= 0.2) on `CACAATCA`
criterion not met

Item `GGTGGAGA` with PBM E-score of 0.2 or above?
criterion not met

###

tested-system: Cst6 (UniProt P40535)
test-details: PBM E-score (8-mer binding enrichment) (E-score (-0.5 to 0.5)); higher = stronger / more preferred TF binding
study-conditions: protein concentration: 200 nM; construct: GST-DNA-binding domain
In all, about 33,000 sequences were measured (“E-score (-0.5 to 0.5)”: median about -0.016, highest 2% from about 0.31 on). Many of the other results were omitted from the sample, so the highest values are more common in it than they were.
readout-kind: PBM E-score

Known results for sequences:
ATACGGCA = 0.394
TATAGGCA = -0.112
ACCGGGAG = -0.317
ATGCGTCA = 0.444
GCCGCACC = 0.226

Field request: PBM E-score | item: `CGAGACTA`
0.0119

Need PBM E-score of `AAGGTTGG` , thanks.
0.0155

I have this sequence here, `ACCGCAGG` , and I need its recorded PBM E-score.
-0.104

So what's the measured PBM E-score for this one? `CGCCGTGA`
0.221

###

tested-system: Cst6 (UniProt P40535)
test-details: PBM E-score (8-mer binding enrichment) (E-score (-0.5 to 0.5)); higher = stronger / more preferred TF binding
study-conditions: protein concentration: 200 nM; construct: GST-DNA-binding domain
The full ranking holds about 33,000 sequences; the median of “E-score (-0.5 to 0.5)” is about -0.016, and the highest 2% start at about 0.31. The list comes from a sample in which the highest values are over-represented; it also holds close analogues and randomly drawn sequences.
Consider the following partition of reported PBM E-score into named classes: L (below 0.009), M (0.009 to below 0.3), H (0.3 or more)

Illustrative cases are given below, each with its answer.
ACTATATC = M
AGACGCCA = L
CGAGGACG = L
TGACGCAA = H
GACATCAA = H
GGACGCAA = M

For the record `ATACGCAA` , report the class its PBM E-score corresponds to.
M

Exam item: assign `CACACAAA` to the correct category.
M
